# experimental_system: D(4) dopamine receptor (Homo sapiens)
# Sequence (P21917 whole entry): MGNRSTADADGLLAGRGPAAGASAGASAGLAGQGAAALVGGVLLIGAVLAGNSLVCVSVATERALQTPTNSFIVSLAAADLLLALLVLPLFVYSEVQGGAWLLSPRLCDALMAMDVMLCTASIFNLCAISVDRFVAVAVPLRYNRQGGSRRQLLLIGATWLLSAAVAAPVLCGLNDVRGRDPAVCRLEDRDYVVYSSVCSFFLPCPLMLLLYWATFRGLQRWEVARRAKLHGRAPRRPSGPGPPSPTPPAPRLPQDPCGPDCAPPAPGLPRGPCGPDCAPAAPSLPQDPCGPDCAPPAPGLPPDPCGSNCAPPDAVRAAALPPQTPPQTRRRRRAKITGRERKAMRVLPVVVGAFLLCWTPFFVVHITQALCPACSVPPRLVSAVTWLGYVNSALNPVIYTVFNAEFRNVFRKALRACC
# assay_protocol: Antagonist activity at dopamine D4 receptor
# Type: functional
value_kind: pKi
The value called pKi is obtained by taking minus log10 of the concentration in mol/L.

-- ask Fill in the blank: the reported pKi of `c1ccc(-c2nc(CN3CCN(c4ccccc4)CC3)c[nH]2)cc1` is ____.
-- reply 8.44
